Every entry's value here was drawn from paper PMC9962600.

TESTED ON: UniProtKB O54898
PROTOCOL: Two-electrode voltage clamp on Xenopus oocytes expressing CaV3.1
PROTOCOL CONDITIONS: concentration-response 0.1-100 μM; means ± SEM
MEASUREMENT KIND: IC50 (µM)

COMPOUND: CN(C)CCCOc1ccc(Nc2ccc(C(F)(F)F)cc2[N+](=O)[O-])cc1
IC50 / µM: 2.6

[A] CN(C)CC(O)COc1ccc(Nc2ccc(C(F)(F)F)cc2[N+](=O)[O-])cc1 (stereo not drawn)
[B] CN(C)CC(O)COc1ccc(Nc2ccc(C(F)(F)F)cc2)cc1 (stereo not drawn)
### Prompt For the two items A and B , which reports the higher IC50 value? Lab log: write the label of the selected item as the result.
### Response B

###

TESTED ON: UniProt:O54898
PROTOCOL: Two-electrode voltage clamp on Xenopus oocytes expressing CaV3.1
Assay type: cell-based
PROTOCOL CONDITIONS: 10 μM compound; 10 mM Ba2+; means ± SEM (n ≥ 3); read-out: Inhibition of CaV3.1 currents
MEASUREMENT KIND: inhibition at 10 µM (%)

Examples with answers:
COMPOUND: CN(C)CC(O)COc1ccc(Nc2ccc(C(F)(F)F)cc2[N+](=O)[O-])cc1 (stereo not drawn) [Compound 76]
MEASUREMENT KIND: inhibition at 10 µM
MEASURED NUMBER: 43
//
COMPOUND: CN(C)CC(O)COc1ccc(Nc2ccc(C(F)(F)F)cc2)cc1 (stereo not drawn) [Compound 79]
MEASUREMENT KIND: inhibition at 10 µM
MEASURED NUMBER: 60.4
//
COMPOUND: CN(C)CC(O)COc1ccc(Oc2ccc(C(F)(F)F)cc2[N+](=O)[O-])cc1 (stereo not drawn) [Compound 99]
MEASUREMENT KIND: inhibition at 10 µM
MEASURED NUMBER: 90.7

[P] CNCCCOc1c(Br)cc(CCNC(=O)/C(Cc2cc(Br)c(OC)c(Br)c2)=N/O)cc1Br [Compound 1, purpurealidin I]
[Q] O=C(NCc1cccnc1)C1=NOC2(C=C(Cl)C(=O)C(Cl)=C2)C1 [Compound 72]
[R] CN(C)CCCOc1ccc(Nc2ccc(C(F)(F)F)cc2[N+](=O)[O-])cc1 [Compound 74]
### Prompt # ascending order, key=inhibition at 10 µM Return value: ordered labels per request.
### Response Q, R, P
(Q: 3.1%, R: 43.4%, P: 70.5%)

###

TESTED ON: rat CaV3.3 (Rattus norvegicus)
Sequence (Q9Z0Y8 whole entry): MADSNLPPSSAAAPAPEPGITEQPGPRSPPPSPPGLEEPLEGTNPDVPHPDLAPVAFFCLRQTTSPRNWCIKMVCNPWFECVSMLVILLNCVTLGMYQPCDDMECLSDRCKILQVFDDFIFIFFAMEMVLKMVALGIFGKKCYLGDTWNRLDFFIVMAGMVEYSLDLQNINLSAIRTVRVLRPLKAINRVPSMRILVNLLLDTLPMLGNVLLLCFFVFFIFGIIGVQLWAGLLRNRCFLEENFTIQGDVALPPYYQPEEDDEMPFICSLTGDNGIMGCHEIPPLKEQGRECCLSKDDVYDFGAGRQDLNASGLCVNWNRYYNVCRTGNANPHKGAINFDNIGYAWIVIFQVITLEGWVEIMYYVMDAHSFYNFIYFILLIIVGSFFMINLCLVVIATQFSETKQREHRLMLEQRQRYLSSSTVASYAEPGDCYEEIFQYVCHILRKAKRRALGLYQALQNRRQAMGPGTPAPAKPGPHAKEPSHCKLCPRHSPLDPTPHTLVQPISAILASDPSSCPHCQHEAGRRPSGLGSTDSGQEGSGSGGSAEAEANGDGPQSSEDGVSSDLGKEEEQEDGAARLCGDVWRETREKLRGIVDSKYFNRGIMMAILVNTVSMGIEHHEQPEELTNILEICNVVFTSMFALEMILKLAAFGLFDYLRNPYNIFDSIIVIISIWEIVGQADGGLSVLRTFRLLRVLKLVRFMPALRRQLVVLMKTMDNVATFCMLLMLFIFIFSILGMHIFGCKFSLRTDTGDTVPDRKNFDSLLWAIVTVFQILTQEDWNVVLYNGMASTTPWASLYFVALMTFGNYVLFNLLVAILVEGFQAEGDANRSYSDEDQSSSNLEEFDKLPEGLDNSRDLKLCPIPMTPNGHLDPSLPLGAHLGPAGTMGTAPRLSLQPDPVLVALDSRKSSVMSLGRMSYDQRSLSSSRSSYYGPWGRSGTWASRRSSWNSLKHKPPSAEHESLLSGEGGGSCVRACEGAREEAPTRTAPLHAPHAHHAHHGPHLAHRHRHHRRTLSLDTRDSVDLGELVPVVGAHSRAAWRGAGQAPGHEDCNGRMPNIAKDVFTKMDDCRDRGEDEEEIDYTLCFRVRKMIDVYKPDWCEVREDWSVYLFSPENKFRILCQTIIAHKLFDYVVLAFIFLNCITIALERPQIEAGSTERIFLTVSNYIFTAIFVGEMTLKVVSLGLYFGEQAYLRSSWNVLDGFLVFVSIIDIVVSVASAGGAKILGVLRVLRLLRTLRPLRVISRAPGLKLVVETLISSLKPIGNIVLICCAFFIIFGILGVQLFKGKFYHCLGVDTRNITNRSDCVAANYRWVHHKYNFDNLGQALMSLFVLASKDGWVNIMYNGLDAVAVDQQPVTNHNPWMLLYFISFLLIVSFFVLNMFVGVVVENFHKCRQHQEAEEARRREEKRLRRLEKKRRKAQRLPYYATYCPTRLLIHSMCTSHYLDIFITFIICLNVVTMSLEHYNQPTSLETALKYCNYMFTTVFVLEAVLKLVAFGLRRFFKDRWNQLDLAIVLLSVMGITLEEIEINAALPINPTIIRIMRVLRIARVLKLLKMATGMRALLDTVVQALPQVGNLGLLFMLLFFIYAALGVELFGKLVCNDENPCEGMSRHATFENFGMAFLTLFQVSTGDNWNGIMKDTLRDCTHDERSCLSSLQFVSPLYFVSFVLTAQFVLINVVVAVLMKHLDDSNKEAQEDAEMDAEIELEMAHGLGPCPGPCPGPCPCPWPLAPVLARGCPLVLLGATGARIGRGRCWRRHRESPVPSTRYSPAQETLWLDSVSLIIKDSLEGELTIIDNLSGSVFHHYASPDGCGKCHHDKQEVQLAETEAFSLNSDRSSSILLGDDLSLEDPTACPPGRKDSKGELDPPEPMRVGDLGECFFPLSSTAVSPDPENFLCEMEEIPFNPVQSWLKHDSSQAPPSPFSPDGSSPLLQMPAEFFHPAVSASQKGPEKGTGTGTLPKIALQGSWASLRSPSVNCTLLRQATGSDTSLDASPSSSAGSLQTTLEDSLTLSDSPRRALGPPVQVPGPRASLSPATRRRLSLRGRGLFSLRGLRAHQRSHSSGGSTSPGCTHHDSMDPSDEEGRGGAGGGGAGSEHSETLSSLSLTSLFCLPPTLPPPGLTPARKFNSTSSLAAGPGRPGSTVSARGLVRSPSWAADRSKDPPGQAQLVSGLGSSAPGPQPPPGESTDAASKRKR
PROTOCOL: Two-electrode voltage clamp on Xenopus oocytes expressing CaV3.3
PROTOCOL CONDITIONS: concentration-response; means ± SEM
pIC50: −log10 of the molar value.
MEASUREMENT KIND: pIC50

[1] CN(C)CCCOc1ccc(Nc2ccc(C(F)(F)F)cc2[N+](=O)[O-])cc1
[2] CN(C)CC(O)COc1ccc(Nc2ccc(C(F)(F)F)cc2)cc1 (stereo not drawn)
### Prompt For the two items 1 and 2 , which reports the higher pIC50 value? Lab log: write the label of the selected item as the result.
### Response 2
(2: 5.57, 1: 4.86)

###

TESTED ON: KV11.1 (hERG) (Homo sapiens)
Sequence (Q12809 whole entry): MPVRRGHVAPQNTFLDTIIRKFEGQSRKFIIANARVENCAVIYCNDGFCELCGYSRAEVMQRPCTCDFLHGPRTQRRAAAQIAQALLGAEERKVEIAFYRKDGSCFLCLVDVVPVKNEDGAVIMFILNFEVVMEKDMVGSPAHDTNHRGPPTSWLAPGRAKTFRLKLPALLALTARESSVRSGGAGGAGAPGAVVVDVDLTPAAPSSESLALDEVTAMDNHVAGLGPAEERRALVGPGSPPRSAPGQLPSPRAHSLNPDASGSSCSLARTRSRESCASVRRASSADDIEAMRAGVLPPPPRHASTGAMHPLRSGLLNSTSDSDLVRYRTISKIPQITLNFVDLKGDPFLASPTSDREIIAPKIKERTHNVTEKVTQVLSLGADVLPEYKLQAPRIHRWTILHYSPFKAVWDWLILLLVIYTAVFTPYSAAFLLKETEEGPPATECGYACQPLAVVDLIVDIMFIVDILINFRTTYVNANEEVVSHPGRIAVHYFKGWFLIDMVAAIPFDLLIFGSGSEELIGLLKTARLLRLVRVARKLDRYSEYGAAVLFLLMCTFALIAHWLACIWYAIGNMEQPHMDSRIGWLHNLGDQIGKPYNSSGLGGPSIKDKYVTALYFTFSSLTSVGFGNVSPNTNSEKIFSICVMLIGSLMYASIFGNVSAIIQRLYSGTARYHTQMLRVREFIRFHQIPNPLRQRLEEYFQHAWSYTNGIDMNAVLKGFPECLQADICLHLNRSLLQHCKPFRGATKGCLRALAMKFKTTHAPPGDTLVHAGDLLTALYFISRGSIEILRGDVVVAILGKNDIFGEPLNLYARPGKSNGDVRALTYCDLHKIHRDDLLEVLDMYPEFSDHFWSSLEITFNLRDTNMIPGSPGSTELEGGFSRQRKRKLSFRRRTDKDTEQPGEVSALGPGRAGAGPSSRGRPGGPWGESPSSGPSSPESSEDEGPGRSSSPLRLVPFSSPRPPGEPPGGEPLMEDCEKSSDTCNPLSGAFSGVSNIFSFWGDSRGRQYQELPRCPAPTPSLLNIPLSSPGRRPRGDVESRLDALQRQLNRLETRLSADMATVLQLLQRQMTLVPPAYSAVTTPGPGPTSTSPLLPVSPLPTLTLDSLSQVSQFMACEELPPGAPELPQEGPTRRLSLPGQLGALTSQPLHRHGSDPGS
PROTOCOL: Selectivity screening, KV11.1 (hERG) in Xenopus oocytes
Assay type: cell-based
PROTOCOL CONDITIONS: human, Xenopus laevis oocytes expressing human KV11.1 (hERG), pH 7.5; 10 μM; means ± SEM (n ≥ 3); read-out: Percentage of inhibition of KV11.1
Procedure: As these purpurealidin analogs represent a new class of potent CaV3.1 inhibitors, they could potentially be used as pharmacological tools to investigate the role of CaV3 channels in various disease models. Therefore, compounds 74, 76, 79, and 99 were further evaluated at a concentration of 10 μM for their selectivity against cardiac voltage-gated potassium and sodium channels. […] Nevertheless, the affinity for the KV11.1 channel is an important issue for all four compounds (Table 2). […]
inhibition at 10 µM values, listed per item
Respond numerically; units are % and should not be typed.

Examples with answers:
COMPOUND: CN(C)CC(O)COc1ccc(Oc2ccc(C(F)(F)F)cc2[N+](=O)[O-])cc1 (stereo not shown) [Compound 99]
TESTED ON: KV11.1 (hERG) (Homo sapiens)
inhibition at 10 µM [%]: 69.1

COMPOUND: CN(C)CC(O)COc1ccc(Nc2ccc(C(F)(F)F)cc2)cc1 (stereo not shown) [Compound 79]
TESTED ON: KV11.1 (hERG) (Homo sapiens)
inhibition at 10 µM [%]: 67.6

COMPOUND: CN(C)CCCOc1ccc(Nc2ccc(C(F)(F)F)cc2[N+](=O)[O-])cc1 [Compound 74]
TESTED ON: KV11.1 (hERG) (Homo sapiens)
inhibition at 10 µM [%]: 45.8

Please examine the following record next.
### Prompt Which inhibition at 10 µM is listed for CN(C)CC(O)COc1ccc(Nc2ccc(C(F)(F)F)cc2[N+](=O)[O-])cc1 (stereo not shown) [Compound 76] ?
### Response 64.2
